Tested on: AsPC-1
Assay: Cell viability analysis (WST-1), AsPC-1
Type: cell-based
Conditions: Homo sapiens, ASPC1, 72 h, Table 4, repeated experiments, drug 10 μM, read-out: survival rate (viability) of cancer cells, AsPC-1
Text: Subculture the different types of cancer cells. […] The cell numbers were counted and reseed as 2×10^6 in cell culture plate/flask. […] Removing the original culture medium from 96-well plate. […] Detecting and calculating the survival rate of each cancer cells with an ELISA reader at OD450 nm. […]
# note: boundary value 80% maps to Not met; viability at 10 µM below it maps to Met

# example entries with known answers
>>> classlabel("CCOC(=O)C1=C(COCCN)NC(C)=C(C(=O)OC)C1c1ccccc1Cl (stereo not drawn) [Amlodipine besylate (Norvase), Amlodipine besylate]")
"Not met"
>>> classlabel("CCCCc1nc(Cl)c(CO)n1Cc1ccc(-c2ccccc2-c2nn[nH]n2)cc1 [Losartan potassium]")
"Not met"
>>> classlabel("CC(C)n1c(/C=C/C(O)CC(O)CC(=O)O)c(-c2ccc(F)cc2)c2ccccc21 (stereo not drawn) [Fluvastatin sodium (Lescol), Fluvastatin sodium]")
"Not met"

Take the molecule COCCOC(=O)C1=C(C)NC(C)=C(C(=O)OC/C=C/c2ccccc2)C1c1cccc([N+](=O)[O-])c1 (stereo not drawn) [Cilnidipine] and say whether its viability at 10 µM is less than 80%.
Met

Determine if OC(CNCC(O)C1CCc2cc(F)ccc2O1)C1CCc2cc(F)ccc2O1 (stereo not drawn) [Nebivolol(Bystolic), Nebivolol] shows viability at 10 µM strictly lower than 80%.
Not met

Threshold test, viability at 10 µM < 80%: CC1=C(C(=O)OC(C)C)C(c2cccc([N+](=O)[O-])c2)C(C(=O)OC2CN(C(c3ccccc3)c3ccccc3)C2)=C(N)N1 (stereo not drawn) [Azelnidipine]
Met

====

test system: HeLa (Cervix Adenocarcinoma); assay: Cell viability analysis (WST-1), HeLa; assay type: cell-based; settings: Homo sapiens, HeLa, 72 h, Table 3, drug 10 μM, WST-1, OD450 nm, read-out: survival rate (viability) of cancer cells, HeLa
Structures can show the parent of a compound that is named as a salt.
Listing: viability at 10 µM of selected compounds
Provide only the numeric value, understood in %.

As a guide, the following entries are already answered.
>>> reportedvalue("Cc1cccc(Cc2c[nH]cn2)c1C [Detomidine HCl]")
88.8
>>> reportedvalue("Cc1cnc(C(=O)O)c[n+]1[O-] [Acipimox]")
87.6

# context switch: different compound, same viability at 10 µM
Any idea what viability at 10 µM was measured for C#CCN[C@@H]1CCc2ccccc21 [Rasagiline mesylate] ?
88.1

====

viability at 10 µM values for the compounds below.
system: AGS (Gastric Adenocarcinoma); assay: Cell viability analysis (WST-1), AGS; type: cell-based; conditions: 72 h, Table 3, drug 10 μM, WST-1, OD450 nm, read-out: survival rate (viability) of cancer cells, AGS
Provide the reading as a plain figure in %.

>>> reportedvalue("O=C(O)c1nn(Cc2ccc(Cl)cc2Cl)c2ccccc12 [Lonidamine]")
69.9
>>> reportedvalue("Cc1cnc(C(=O)O)c[n+]1[O-] [Acipimox]")
87.5
>>> reportedvalue("Cc1[nH]c(=O)c(C#N)cc1-c1ccncc1 [Milrinone (Primacor), Milrinone]")
130
>>> reportedvalue("CC(=O)NS(=O)(=O)c1ccc(N)cc1 [sulfacetamide sodium]")
81.4
>>> reportedvalue("CC(=O)O[C@H]1C[C@@H]2CC[C@@H]3[C@H](CC[C@@]4(C)[C@H]3C[C@H]([N+]3(C)CCCCC3)[C@@H]4OC(C)=O)[C@@]2(C)C[C@@H]1[N+]1(C)CCCCC1 [Pancuronium (Pavulon), Pancuronium]")
120

Record CC(=O)Oc1ccc(C(c2ccc(OC(C)=O)cc2)c2ccccn2)cc1 [Bisacodyl] : what is its viability at 10 µM with AGS (Gastric Adenocarcinoma)?
107

GET /values?readout=viability at 10 µM&system=AGS (Gastric Adenocarcinoma)&item= Cc1c(OCC(F)(F)F)ccnc1C[S@@+]([O-])c1nc2ccccc2[nH]1 [Dexlansoprazole]
89.8

Given the entry CCCCNc1cc(C(=O)O)cc(S(N)(=O)=O)c1Oc1ccccc1 [Bumetanide] , what viability at 10 µM was observed with AGS (Gastric Adenocarcinoma)?
69.9
